tgt: Bet v 1.0101 (Betula pendula)
Construct: gene BETVIA
Sequence (P15494 2-160): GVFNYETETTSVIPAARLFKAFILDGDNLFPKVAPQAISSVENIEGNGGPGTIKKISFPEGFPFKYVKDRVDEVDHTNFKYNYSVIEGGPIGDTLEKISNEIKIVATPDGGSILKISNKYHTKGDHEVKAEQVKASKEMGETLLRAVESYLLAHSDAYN
experimental.details: crystal structure (soaked); 1H-15N HSQC NMR titration; relaxation dispersion
Assay type: binding
Structures can show the parent of a compound that is named as a salt.
measure.name: pKd
Bear in mind: pKd is minus log10 of a mol/L concentration; give just that figure.

[ask] For the molecule CCCCCCCCCCCCOS(=O)(=O)O [SDS, sodium dodecyl sulfate] , report pKd.
[reply] 5.15

The reported measurements were obtained from paper PMC4269767.
